# maps each entry to its MIC
System: Staphylococcus aureus
test_summary: In Vitro minimal inhibitory concentration against Staphylococcus aureus (FDA 209P)
Type: functional

{"compound": "CS(=O)(=O)C1(C(=O)O)C(=O)NC[C@@H]2[C@H](NC(=O)Cc3ccccc3)C(=O)N21 (stereo partly drawn)", "MIC": "48.5 µg/mL"}
{"compound": "CC1=C(C(=O)O)N2C(=O)[C@@H](NC(=O)Cc3ccccc3)[C@H]2SC1", "MIC": "0.64 µg/mL"}
{"compound": "CS(=O)(=O)C1=C(O)NC[C@@H]2[C@H](NC(=O)Cc3ccccc3)C(=O)N12 (racemic)", "MIC": "> 128 µg/mL"}
